species: Homo sapiens; test: Selectivity ratio of Ki(app) for recombinant human C-terminal His10-tagged hepsin catalytic domain to Ki(app) for recombinant human N-terminal His6-tagged matriptase catalytic domain expressed in Escherichia coli
Provide the recorded Ratio Ki(app) for the entries that follow.
A bare number is all that is needed in reply.

Request: Value lookup for Ratio Ki(app); key = N=C(N)NCCC[C@H](NC(=O)[C@H](CCC(N)=O)NC(=O)OCC1c2ccccc2-c2ccccc21)C(=O)c1nc2ccccc2s1
Response: 179

Request: Value lookup for Ratio Ki(app); key = N=C(N)NCCC[C@H](NC(=O)[C@@H]1CCCN1C(=O)OCC1c2ccccc2-c2ccccc21)C(=O)c1nc2ccccc2s1
Response: 782

Request: Value lookup for Ratio Ki(app); key = N=C(N)NCCC[C@H](NC(=O)[C@H](Cc1cnc[nH]1)NC(=O)OCC1c2ccccc2-c2ccccc21)C(=O)c1nc2ccccc2s1
Response: 21

Request: Value lookup for Ratio Ki(app); key = N=C(N)NCCC[C@H](NC(=O)[C@H](CCC(=O)O)NC(=O)OCC1c2ccccc2-c2ccccc21)C(=O)c1nc2ccccc2s1
Response: 52

Request: Value lookup for Ratio Ki(app); key = CC(C)[C@H](NC(=O)OCC1c2ccccc2-c2ccccc21)C(=O)N[C@@H](CCCNC(=N)N)C(=O)c1nc2ccccc2s1
Response: 6.9

Request: Value lookup for Ratio Ki(app); key = N=C(N)NCCC[C@H](NC(=O)OCC1c2ccccc2-c2ccccc21)C(=O)N[C@@H](CCCNC(=N)N)C(=O)c1nc2ccccc2s1
Response: 26

Request: Value lookup for Ratio Ki(app); key = N=C(N)NCCC[C@H](NC(=O)[C@H](CO)NC(=O)OCC1c2ccccc2-c2ccccc21)C(=O)c1nc2ccccc2s1
Response: 113

Request: Value lookup for Ratio Ki(app); key = N=C(N)NCCC[C@H](NC(=O)[C@H](CCCCN)NC(=O)OCC1c2ccccc2-c2ccccc21)C(=O)c1nc2ccccc2s1
Response: 473

Request: Value lookup for Ratio Ki(app); key = N=C(N)NCCC[C@H](NC(=O)CNC(=O)OCC1c2ccccc2-c2ccccc21)C(=O)c1nc2ccccc2s1
Response: 6390

###

Provide the recorded pKi for the entries that follow.
Remember, pKi is on a log scale: it is -log10 of the molar concentration.

Request: Param readout= pKi; system= Hepatocyte growth factor activator serine protease (Homo sapiens); entry= N=C(N)NCCC[C@H](NC(=O)[C@H](Cc1c[nH]c2ccccc12)NC(=O)OCC1c2ccccc2-c2ccccc21)C(=O)c1nc2ccccc2s1 ; returns value.
Response: 5.50

Request: Param readout= pKi; system= Hepatocyte growth factor activator serine protease (Homo sapiens); entry= N=C(N)NCCC[C@H](NC(=O)[C@H](CCC(N)=O)NC(=O)OCC1c2ccccc2-c2ccccc21)C(=O)c1nc2ccccc2s1 ; returns value.
Response: 5.17

Request: Param readout= pKi; system= Hepatocyte growth factor activator serine protease (Homo sapiens); entry= CC(C)[C@H](NC(=O)OCC1c2ccccc2-c2ccccc21)C(=O)N[C@@H](CCCNC(=N)N)C(=O)c1nc2ccccc2s1 ; returns value.
Response: 5.33

###

Provide the recorded pKi for the entries that follow.
Molecular target: Suppressor of tumorigenicity 14 protein (Homo sapiens)
Sequence (Q9Y5Y6 whole entry): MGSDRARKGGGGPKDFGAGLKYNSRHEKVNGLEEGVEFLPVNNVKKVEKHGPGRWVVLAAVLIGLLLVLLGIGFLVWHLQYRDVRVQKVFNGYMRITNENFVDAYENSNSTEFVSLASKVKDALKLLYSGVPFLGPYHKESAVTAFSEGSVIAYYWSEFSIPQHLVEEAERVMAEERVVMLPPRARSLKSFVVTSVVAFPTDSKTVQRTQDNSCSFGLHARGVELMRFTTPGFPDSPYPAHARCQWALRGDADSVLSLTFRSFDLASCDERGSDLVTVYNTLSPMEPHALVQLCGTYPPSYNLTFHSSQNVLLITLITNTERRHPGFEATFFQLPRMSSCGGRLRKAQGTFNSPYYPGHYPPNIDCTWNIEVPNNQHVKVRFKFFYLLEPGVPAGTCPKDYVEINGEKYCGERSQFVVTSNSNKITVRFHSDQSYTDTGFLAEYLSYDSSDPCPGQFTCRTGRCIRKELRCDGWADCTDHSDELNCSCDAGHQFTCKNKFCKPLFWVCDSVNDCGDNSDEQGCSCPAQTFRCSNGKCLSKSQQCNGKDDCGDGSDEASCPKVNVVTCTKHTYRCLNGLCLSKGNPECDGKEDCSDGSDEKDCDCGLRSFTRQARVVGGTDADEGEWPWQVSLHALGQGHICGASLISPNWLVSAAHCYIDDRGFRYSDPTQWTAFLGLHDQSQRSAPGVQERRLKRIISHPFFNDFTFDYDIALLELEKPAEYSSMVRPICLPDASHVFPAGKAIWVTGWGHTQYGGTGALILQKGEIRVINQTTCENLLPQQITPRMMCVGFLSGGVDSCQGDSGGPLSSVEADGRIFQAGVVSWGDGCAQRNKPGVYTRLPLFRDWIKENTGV
Assay: Inhibition of recombinant human N-terminal His6-tagged matriptase catalytic domain expressed in Escherichia coli preincubated for 30 mins followed by Boc-QAR-AMC substrate addition and measured for 1 hr by fluorescence assay
Details: read-out: Ki(app)
Remember, pKi is on a log scale: it is -log10 of the molar concentration.

Request: Value lookup for pKi; key = N=C(N)NCCC[C@H](NC(=O)[C@H](CO)NC(=O)OCC1c2ccccc2-c2ccccc21)C(=O)c1nc2ccccc2s1
Response: 8.31

Request: Value lookup for pKi; key = N=C(N)NCCC[C@H](NC(=O)[C@H](CCC(=O)O)NC(=O)OCC1c2ccccc2-c2ccccc21)C(=O)c1nc2ccccc2s1
Response: 8.14

Request: Value lookup for pKi; key = N=C(N)NCCC[C@H](NC(=O)[C@H](Cc1ccc(O)cc1)NC(=O)OCC1c2ccccc2-c2ccccc21)C(=O)c1nc2ccccc2s1
Response: 7.60

Request: Value lookup for pKi; key = C[C@H](NC(=O)OCC1c2ccccc2-c2ccccc21)C(=O)N[C@@H](CCCNC(=N)N)C(=O)c1nc2ccccc2s1
Response: 9.44

Request: Value lookup for pKi; key = N=C(N)NCCC[C@H](NC(=O)[C@H](CCC(N)=O)NC(=O)OCC1c2ccccc2-c2ccccc21)C(=O)c1nc2ccccc2s1
Response: 9.19

Request: Value lookup for pKi; key = N=C(N)NCCC[C@H](NC(=O)[C@H](Cc1cnc[nH]1)NC(=O)OCC1c2ccccc2-c2ccccc21)C(=O)c1nc2ccccc2s1
Response: 7.96

Request: Value lookup for pKi; key = N=C(N)NCCC[C@H](NC(=O)[C@H](Cc1c[nH]c2ccccc12)NC(=O)OCC1c2ccccc2-c2ccccc21)C(=O)c1nc2ccccc2s1
Response: 6.53
